- SUBJECT_OF_TEST: human CD74, naturally expressed on cells (Raji, Daudi, M4A4, NCI-H747 cells; human tonsil tissue) (human) (UniProt P04233)
- METHOD_NOTES: cell-based or functional assay
Below is a list of entries, each paired with its recorded % kill of Daudi cells at 10 µg/mL value.

# BINDER, UNIT_STRING, % kill of Daudi cells at 10 µg/mL
rows = [
    ("HuMab-CD74-006-mcMMAF (antibody, IgG1, V domains shown, drug-linker mcMMAF alkylated to the cysteines of the reduced antibody (DAR 3.7-4.1), Antibody-drug conjugate of HuMab-CD74-006 (IgG1,kappa)) VH: QVQLVESGGGVVQPGRSLRLSCAASGFTFSSYAMHWVRQAPGKGLEWVAVISYDGSIKYYADSVKGRFTISRDNSKNTLYLQMNSLRVEDTAVFYCARGREITSQNIVILLDYWGQGTLVTVTS VL: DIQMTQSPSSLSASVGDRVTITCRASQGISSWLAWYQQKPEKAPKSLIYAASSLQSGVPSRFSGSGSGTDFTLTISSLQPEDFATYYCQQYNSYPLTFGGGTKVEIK", "%", 93),
    ("HuMab-CD74-011-vcMMAE (antibody, IgG1, V domains shown, drug-linker vcMMAE alkylated to the cysteines of the reduced antibody (DAR 3.8-3.9), Antibody-drug conjugate of HuMab-CD74-011 (IgG1,kappa); also called vcMMAE-conjugated HuMab-CD74-011) VH: QVQLVESGGGVVQPGRSLRLSCAASGFTFSSYGMHWVRQAPDKGLEWVAVIWYDGSNKYYADSVKGRFTISRDNSKNTLYLQMNSLRAEDTAVYYCARGGTLVRGAMYGTDVWGQGTTVTVSS VL: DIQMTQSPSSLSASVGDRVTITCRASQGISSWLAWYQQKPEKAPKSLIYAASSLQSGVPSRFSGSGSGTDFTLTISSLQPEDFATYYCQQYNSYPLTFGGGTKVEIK", "%", 86),
]
